The entries below are paired with their reported ΔG.
# TARGET: 14-3-3γ (Homo sapiens, UniProt P61981)
# Construct: made in house; host or cells: E. coli NiCo21 (DE3)
# Sequence (P61981 1-247): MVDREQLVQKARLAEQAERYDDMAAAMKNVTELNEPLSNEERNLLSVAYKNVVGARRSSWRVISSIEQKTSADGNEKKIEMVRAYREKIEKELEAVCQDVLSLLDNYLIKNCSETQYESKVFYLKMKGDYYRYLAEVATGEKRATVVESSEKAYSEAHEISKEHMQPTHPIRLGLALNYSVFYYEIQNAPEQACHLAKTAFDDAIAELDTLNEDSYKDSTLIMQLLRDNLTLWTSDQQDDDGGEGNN
# MEASUREMENT PROTOCOL: Fluorescence anisotropy (FA) binary binding study: 14-3-3 titrated to fluorescein-labelled peptide
# TEST CONTEXT: Table S4; calculated from FA Kd; mean of n = 3
Where a SMILES comes first, the peptide text is derived from it. [ ]: non-standard residue; d: D form. ξ: configuration not given here. Phe(4-NO2) = N[C@@H](Cc1ccc([N+](=O)[O-])cc1)C(=O)O; ξAla(4-thiazolyl) = NC(Cc1cscn1)C(=O)O; pS = N[C@@H](COP(=O)(O)O)C(=O)O; β3hS = N[C@@H](CO)CC(=O)O; Nva = CCC[C@H](N)C(=O)O; ξβ3hS = NC(CO)CC(=O)O; βAla = NCCC(=O)O
All answers are understood in kcal/mol, so give the number only.

Examples with answers:
Input CCC[C@H](NC(=O)[C@H](N)CCCCN)C(=O)N[C@@H](Cc1ccc([N+](=O)[O-])cc1)C(=O)NC(Cc1cscn1)C(=O)N[C@@H](COP(=O)(O)O)C(=O)N[C@@H](Cc1ccc([N+](=O)[O-])cc1)C(=O)NC(CO)CC(=O)NCCC(=O)N[C@@H](Cc1ccc([N+](=O)[O-])cc1)C(=O)N[C@@H](CCCCN)C(N)=O (stereo partly drawn) [compound 1] (H-[dK][Nva][Phe(4-NO2)][ξAla(4-thiazolyl)][pS][Phe(4-NO2)][ξβ3hS][βAla][Phe(4-NO2)]K-NH2) . Output ΔG: -9.8

Note to self: ΔG recorded for CCC[C@H](NC(=O)[C@H](N)CCCCN)C(=O)N[C@@H](Cc1ccc([N+](=O)[O-])cc1)C(=O)N[C@@H](C)C(=O)N[C@@H](COP(=O)(O)O)C(=O)N[C@@H](Cc1ccc([N+](=O)[O-])cc1)C(=O)N[C@@H](CO)CC(=O)NCCC(=O)N[C@@H](Cc1ccc([N+](=O)[O-])cc1)C(=O)N[C@@H](CCCCN)C(N)=O [3a] (H-[dK][Nva][Phe(4-NO2)]A[pS][Phe(4-NO2)][β3hS][βAla][Phe(4-NO2)]K-NH2; N-terminus and C-terminus assumed) was -9.8

---
Looking up CCC[C@H](NC(=O)[C@H](N)CCCCN)C(=O)N[C@@H](Cc1ccc([N+](=O)[O-])cc1)C(=O)NC(Cc1cscn1)C(=O)N[C@@H](COP(=O)(O)O)C(=O)N[C@@H](Cc1ccc([N+](=O)[O-])cc1)C(=O)N[C@@H](CO)CC(=O)NCCC(=O)N[C@@H](Cc1ccccc1)C(=O)N[C@@H](CCCCN)C(N)=O (stereo partly drawn) [5b] (H-[dK][Nva][Phe(4-NO2)][ξAla(4-thiazolyl)][pS][Phe(4-NO2)][β3hS][βAla]FK-NH2; N-terminus and C-terminus assumed) , I see its ΔG listed as -8.0

----------
ΔΔG to 1 by entry:
# TARGET: 14-3-3γ (Homo sapiens)
# Construct: made in house; host or cells: E. coli NiCo21 (DE3)
# Sequence (P61981 1-247): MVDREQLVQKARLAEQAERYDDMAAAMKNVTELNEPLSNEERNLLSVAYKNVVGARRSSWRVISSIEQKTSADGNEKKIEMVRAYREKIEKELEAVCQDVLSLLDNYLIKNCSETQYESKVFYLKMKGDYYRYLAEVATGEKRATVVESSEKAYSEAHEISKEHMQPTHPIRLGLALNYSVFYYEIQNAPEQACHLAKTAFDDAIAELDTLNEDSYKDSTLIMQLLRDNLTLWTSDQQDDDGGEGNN
# MEASUREMENT PROTOCOL: Isothermal titration calorimetry (ITC) of 14-3-3 binding to peptide
# TEST CONTEXT: Table S5; ΔG minus ΔG of peptide 1, ITC; second unlabelled line (replicate 2)
Where a SMILES comes first, the peptide text is derived from it. [ ]: non-standard residue; d: D form. ξ: configuration not given here. Phe(4-NO2) = N[C@@H](Cc1ccc([N+](=O)[O-])cc1)C(=O)O; ξAla(4-thiazolyl) = NC(Cc1cscn1)C(=O)O; pS = N[C@@H](COP(=O)(O)O)C(=O)O; β3hS = N[C@@H](CO)CC(=O)O; Nva = CCC[C@H](N)C(=O)O; βAla = NCCC(=O)O
// return numeric value only (unit: kcal/mol, not printed)

Looking up CCC[C@H](NC(=O)[C@H](N)CCCCN)C(=O)N[C@@H](Cc1ccc([N+](=O)[O-])cc1)C(=O)NC(Cc1cscn1)C(=O)N[C@@H](COP(=O)(O)O)C(=O)N[C@@H](C)C(=O)N[C@@H](CO)CC(=O)NCCC(=O)N[C@@H](Cc1ccc([N+](=O)[O-])cc1)C(=O)N[C@@H](CCCCN)C(N)=O (stereo partly drawn) [4c] (H-[dK][Nva][Phe(4-NO2)][ξAla(4-thiazolyl)][pS]A[β3hS][βAla][Phe(4-NO2)]K-NH2; N-terminus and C-terminus assumed) , I see its ΔΔG to 1 listed as 1.7

With those in mind, consider the next compound.
Measured ΔΔG to 1, CCC[C@H](NC(=O)[C@H](N)CCCCN)C(=O)N[C@@H](Cc1ccc([N+](=O)[O-])cc1)C(=O)NC(Cc1cscn1)C(=O)N[C@@H](COP(=O)(O)O)C(=O)N[C@@H](Cc1ccc(O)cc1)C(=O)N[C@@H](CO)CC(=O)NCCC(=O)N[C@@H](Cc1ccc([N+](=O)[O-])cc1)C(=O)N[C@@H](CCCCN)C(N)=O (stereo partly drawn) [4a] (H-[dK][Nva][Phe(4-NO2)][ξAla(4-thiazolyl)][pS]Y[β3hS][βAla][Phe(4-NO2)]K-NH2; N-terminus and C-terminus assumed) : 0.2

----------
# TARGET: 14-3-3γ (Homo sapiens, UniProt P61981)
# Construct: made in house; host or cells: E. coli NiCo21 (DE3)
# MEASUREMENT PROTOCOL: Isothermal titration calorimetry (ITC) of 14-3-3 binding to peptide
# TEST CONTEXT: Table S5; ITC, 25 °C; mean of n = 2
Where a SMILES comes first, the peptide text is derived from it. [ ]: non-standard residue; d: D form. ξ: configuration not given here. Phe(4-NO2) = N[C@@H](Cc1ccc([N+](=O)[O-])cc1)C(=O)O; ξAla(4-thiazolyl) = NC(Cc1cscn1)C(=O)O; pS = N[C@@H](COP(=O)(O)O)C(=O)O; β3hS = N[C@@H](CO)CC(=O)O; Nva = CCC[C@H](N)C(=O)O; ξβ3hS = NC(CO)CC(=O)O; βAla = NCCC(=O)O
ENDPOINT LABEL: ΔG (kcal/mol)
State just the number; it will be interpreted in kcal/mol.

Answered cases to consult:
Per the records, this compound ( CCC[C@H](NC(=O)[C@H](N)CCCCN)C(=O)N[C@@H](Cc1ccc([N+](=O)[O-])cc1)C(=O)NC(Cc1cscn1)C(=O)N[C@@H](COP(=O)(O)O)C(=O)N[C@@H](Cc1ccc([N+](=O)[O-])cc1)C(=O)NC(CO)CC(=O)NCCC(=O)N[C@@H](Cc1ccc([N+](=O)[O-])cc1)C(=O)N[C@@H](CCCCN)C(N)=O (stereo partly drawn) [compound 1] (H-[dK][Nva][Phe(4-NO2)][ξAla(4-thiazolyl)][pS][Phe(4-NO2)][ξβ3hS][βAla][Phe(4-NO2)]K-NH2) ) has ΔG equal to -10.0

So for CCC[C@H](NC(=O)[C@H](N)CCCCN)C(=O)N[C@@H](Cc1ccc([N+](=O)[O-])cc1)C(=O)NC(Cc1cscn1)C(=O)N[C@@H](COP(=O)(O)O)C(=O)N[C@@H](Cc1ccc([N+](=O)[O-])cc1)C(=O)N[C@@H](CO)CC(=O)NCCC(=O)N[C@@H](Cc1ccccc1)C(=O)N[C@@H](CCCCN)C(N)=O (stereo partly drawn) [5b] (H-[dK][Nva][Phe(4-NO2)][ξAla(4-thiazolyl)][pS][Phe(4-NO2)][β3hS][βAla]FK-NH2; N-terminus and C-terminus assumed) , the logged ΔG turned out to be -7.9

Per the records, this compound ( CCC[C@H](NC(=O)[C@H](N)CCCCN)C(=O)N[C@@H](Cc1ccc([N+](=O)[O-])cc1)C(=O)NC(Cc1cscn1)C(=O)N[C@@H](COP(=O)(O)O)C(=O)N[C@@H](C)C(=O)N[C@@H](CO)CC(=O)NCCC(=O)N[C@@H](Cc1ccc([N+](=O)[O-])cc1)C(=O)N[C@@H](CCCCN)C(N)=O (stereo partly drawn) [4c] (H-[dK][Nva][Phe(4-NO2)][ξAla(4-thiazolyl)][pS]A[β3hS][βAla][Phe(4-NO2)]K-NH2; N-terminus and C-terminus assumed) ) has ΔG equal to -8.3

For record CCC[C@H](NC(=O)[C@H](N)CCCCN)C(=O)N[C@@H](Cc1ccc([N+](=O)[O-])cc1)C(=O)NC(Cc1cscn1)C(=O)N[C@@H](COP(=O)(O)O)C(=O)N[C@@H](Cc1ccc(O)cc1)C(=O)N[C@@H](CO)CC(=O)NCCC(=O)N[C@@H](Cc1ccc([N+](=O)[O-])cc1)C(=O)N[C@@H](CCCCN)C(N)=O (stereo partly drawn) [4a] (H-[dK][Nva][Phe(4-NO2)][ξAla(4-thiazolyl)][pS]Y[β3hS][βAla][Phe(4-NO2)]K-NH2; N-terminus and C-terminus assumed) the listed ΔG is -9.6

Memo: CCC[C@H](NC(=O)[C@H](N)CCCCN)C(=O)N[C@@H](Cc1ccc([N+](=O)[O-])cc1)C(=O)NC(Cc1cscn1)C(=O)N[C@@H](COP(=O)(O)O)C(=O)N[C@@H](Cc1ccc([N+](=O)[O-])cc1)C(=O)N[C@@H](CO)CC(=O)NCCC(=O)N[C@@H](C)C(=O)N[C@@H](CCCCN)C(N)=O (stereo partly drawn) [5c] (H-[dK][Nva][Phe(4-NO2)][ξAla(4-thiazolyl)][pS][Phe(4-NO2)][β3hS][βAla]AK-NH2; N-terminus and C-terminus assumed) , reported ΔG: -7.4

Now for a further compound.
Kindly note the recorded ΔG for CCC[C@H](NC(=O)[C@H](N)CCCCN)C(=O)N[C@@H](Cc1ccc([N+](=O)[O-])cc1)C(=O)N[C@@H](C)C(=O)N[C@@H](COP(=O)(O)O)C(=O)N[C@@H](Cc1ccc([N+](=O)[O-])cc1)C(=O)N[C@@H](CO)CC(=O)NCCC(=O)N[C@@H](Cc1ccc([N+](=O)[O-])cc1)C(=O)N[C@@H](CCCCN)C(N)=O [3a] (H-[dK][Nva][Phe(4-NO2)]A[pS][Phe(4-NO2)][β3hS][βAla][Phe(4-NO2)]K-NH2; N-terminus and C-terminus assumed) , which is -9.7

Reference for the values: paper PMC9667936
